- Tested on: ATP;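 also: ATP exposure 15 min at 22 °C before imaging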
- PROCEDURE_TEXT: switch fluorescence ratio, 500 uM ATP over buffer (Cy3 cluster intensity, sum of 5 cycles each) (fold (ratio)); higher = stronger signal-on switching upon ATP binding; sequences stand for … in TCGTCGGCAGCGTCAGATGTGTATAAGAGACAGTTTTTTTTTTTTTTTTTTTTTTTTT…TC
- CONDITION_PARAMETERS: aptamer strand: ATP DNA aptamer (quencher-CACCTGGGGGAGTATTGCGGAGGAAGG + anchor), 100 nM annealed; ATP concentration: 500 uM
EXPERIMENTAL_ENDPOINT: switch fluorescence ratio

INSERT INTO assay_data (monomer_sequence, experimental_target, observed) VALUES
  ('AAATGAATGG', 'ATP', 1.02),
  ('TTTTATGGGC', 'ATP', 1.01),
  ('GTTTGTTTGG', 'ATP', 0.974),
  ('GAATAAAAGC', 'ATP', 0.99),
  ('AACCCAATTT', 'ATP', 0.985),
  ('CTTTGATTGA', 'ATP', 0.981),
  ('ATGGTGATAG', 'ATP', 0.992),
  ('TATATTGCAT', 'ATP', 1.01),
  ('TTAACAGTTT', 'ATP', 1),
  ('TGGGTTAGCG', 'ATP', 0.995),
  ('TGATGAGGGT', 'ATP', 1.02),
  ('AAGTCGTCCG', 'ATP', 0.985),
  ('AGTGTTTTAA', 'ATP', 0.994),
  ('CGGTTCTACG', 'ATP', 1.01);

====

switch fluorescence ratio overview
- Tested on: ATP;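 also: ATP exposure 15 min at 22 °C before imaging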
- PROCEDURE_TEXT: switch fluorescence ratio, 500 uM ATP over buffer (Cy3 cluster intensity, sum of 5 cycles each) (fold (ratio)); higher = stronger signal-on switching upon ATP binding; sequences stand for … in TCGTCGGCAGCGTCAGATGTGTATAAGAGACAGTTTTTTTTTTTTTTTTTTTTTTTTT…TC
- CONDITION_PARAMETERS: aptamer strand: ATP DNA aptamer (quencher-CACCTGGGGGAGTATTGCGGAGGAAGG + anchor), 100 nM annealed; ATP concentration: 500 uM
EXPERIMENTAL_ENDPOINT: switch fluorescence ratio

INSERT INTO results (monomer_sequence, observed) VALUES
  ('TTTGATATTT', 1.11),
  ('TCGTTACCCT', 1.02),
  ('ACATTGCGAC', 1.14),
  ('AATTTTTTGA', 0.972),
  ('GGGATTTGCG', 1),
  ('GCGGGGA', 0.998),
  ('AAGATTTGGG', 0.991),
  ('TTAGGCCGGG', 0.998),
  ('GAGTAGGACC', 1.03),
  ('TACGTCACCT', 1.71),
  ('CTTGAACGAA', 1.02),
  ('GTTAATTATT', 1.06);

====

Property: switch fluorescence ratio; scope: individual sequences
- Tested on: ATP;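 also: ATP exposure 15 min at 22 °C before imaging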
- PROCEDURE_TEXT: switch fluorescence ratio, 500 uM ATP over buffer (Cy3 cluster intensity, sum of 5 cycles each) (fold (ratio)); higher = stronger signal-on switching upon ATP binding; sequences stand for … in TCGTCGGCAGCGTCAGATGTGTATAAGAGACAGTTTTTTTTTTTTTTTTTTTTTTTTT…TC
- CONDITION_PARAMETERS: aptamer strand: ATP DNA aptamer (quencher-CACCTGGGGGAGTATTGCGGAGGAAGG + anchor), 100 nM annealed; ATP concentration: 500 uM
EXPERIMENTAL_ENDPOINT: switch fluorescence ratio

INSERT INTO results (monomer_sequence, observed) VALUES
  ('GTTTGCTACG', 1),
  ('GTTCAGTGAG', 0.995),
  ('TAAGTTATAG', 1.02),
  ('GAGGGACTAA', 0.997),
  ('TTGCTGAGGA', 0.962),
  ('CGGTTTTATT', 0.982),
  ('GGTTACTGGT', 1.01),
  ('TTCGTTTCGG', 1.01),
  ('GTTTTGAGTT', 1),
  ('GGGGAGGGGA', 1.01),
  ('GTCTAATAGT', 1.03),
  ('ATTATATGGG', 1.02),
  ('CCTCAGAGGG', 1.24),
  ('AGCGTAGTGG', 1.03),
  ('AGGCAGGTAC', 1.25),
  ('ATCCGATACG', 1.18),
  ('GGGGGGTAGT', 1.02),
  ('CTAAGGGGCT', 1.01),
  ('ATGGTAACGG', 0.965),
  ('GTAATTTATC', 1.01),
  ('GACTGGGGGT', 0.998),
  ('TGTTTCTAGG', 0.979),
  ('ACTATCGGGA', 1.02),
  ('GTGATTGACT', 1.03),
  ('TCTATAGTAA', 1.06),
  ('AGTAAAAAAA', 0.987),
  ('GGGATTAACT', 1),
  ('GGGTTGTTGG', 0.996),
  ('CGCGGGCGGA', 1.02),
  ('TTATGGCAGA', 1.01),
  ('TGAAAACACG', 1.17),
  ('TTGTCATGGG', 0.958);
